- test method notes: Pharmacokinetics in Yucatan mini-pigs, single subcutaneous or intravenous dose
- Assay type: in vivo
- test parameters: single intravenous dose 19 nmol/kg, male Yucatan pigs, individual animal
- Experimental: Plasma concentrations of compounds were determined by LC/MS methods. For each assay, the compound and an internal standard (IS), were extracted from 100% mouse, rat, pig, or monkey plasma (70 μL) using Isopropanol-Methanol. Two distinct layers were formed upon centrifugation with the compound and the IS located in the supernatant layer. […] The column effluent was directed into a Thermo Fisher Scientific Orbitrap (Exploris 240) mass spectrometer for detection and quantitation. […]
*1 amine or outer side, *2 acyl side, *3 side chain or, on linkers, in order; H or OH if unused. Side-chain parts run from the residue outwards. [ ]: non-standard residue; d: D form. The star is where a group is joined. C20 diacid = O=C(O)CCCCCCCCCCCCCCCCCCC(=O)*; γGlu = O=C(O)[C@H](CCC(=O)[*:2])N[*:1]; εLys = N[C@@H](CCCCN[*:1])C(=O)[*:2]; αMeL = CC(C)C[C@](C)(N)C(=O)O; AEEA = NCCOCCOCC(=O)O; Aib = CC(C)(N)C(=O)O
quantity measured: T1/2 (h)

Study these solved cases before continuing.
{C20 diacid-εLys-AEEA-γGlu}-GSPSIVTS[αMeL]DVPT[Aib][αMeL]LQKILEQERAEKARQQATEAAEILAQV-NH2 [SEQ ID NO: 25]: 86.8
Ac-GSPSIVTS[αMeL]DVPT[Aib][αMeL]LQKLLEQERAEKARQQAK([γGlu-AEEA-εLys-C20 diacid])EAAEILAQV-NH2 [SEQ ID NO: 2]: 75.1

A: Ac-PPPIVTS[αMeL]DVPT[Aib][αMeL]LQKLLEQERAEKARQQAK([γGlu-AEEA-εLys-C20 diacid])EAAEILAQV-NH2 [SEQ ID NO: 48]
B: Ac-GSPSIVTS[αMeL]DVPT[Aib][αMeL]LQKILEQERAEKARQQAK([γGlu-AEEA-εLys-C20 diacid])EAAEILAQV-NH2 [SEQ ID NO: 1]
Hi, I'm comparing two records. Which one has the lower T1/2, A or B ? Record your answer as the label of the chosen record. B

---

- test method notes: Pharmacokinetics in Yucatan mini-pigs, single subcutaneous or intravenous dose
- Assay type: in vivo
- test parameters: male, Yucatan mini-pig, minipig, plasma, sc, 19 nmol/kg, single subcutaneous dose 19 nmol/kg, individual animal
*1 amine or outer side, *2 acyl side, *3 side chain or, on linkers, in order; H or OH if unused. Side-chain parts run from the residue outwards. [ ]: non-standard residue; d: D form. The star is where a group is joined. C20 diacid = O=C(O)CCCCCCCCCCCCCCCCCCC(=O)*; γGlu = O=C(O)[C@H](CCC(=O)[*:2])N[*:1]; εLys = N[C@@H](CCCCN[*:1])C(=O)[*:2]; αMeL = CC(C)C[C@](C)(N)C(=O)O; AEEA = NCCOCCOCC(=O)O; Aib = CC(C)(N)C(=O)O
quantity measured: half-life (h)

{C20 diacid-εLys-AEEA-γGlu}-GSPSIVTS[αMeL]DVPT[Aib][αMeL]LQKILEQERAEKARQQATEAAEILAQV-NH2 [SEQ ID NO: 25]: 80.8
Ac-GSPSIVTS[αMeL]DVPT[Aib][αMeL]LQKILEQERAEKARQQAK([γGlu-AEEA-εLys-C20 diacid])EAAEILAQV-NH2 [SEQ ID NO: 1]: 91.6
Ac-GSPSIVTS[αMeL]DVPT[Aib][αMeL]LQKLLEQERAEKARQQAK([γGlu-AEEA-εLys-C20 diacid])EAAEILAQV-NH2 [SEQ ID NO: 2]: 70.7
Ac-PPPIVTS[αMeL]DVPT[Aib][αMeL]LQKLLEQERAEKARQQAK([γGlu-AEEA-εLys-C20 diacid])EAAEILAQV-NH2 [SEQ ID NO: 48]: 70.1

Measured values drawn from patent US20250163119A1 for this set.
